Target: ALK5 (Homo sapiens, UniProt P36897)
Sequence (P36897 34-503): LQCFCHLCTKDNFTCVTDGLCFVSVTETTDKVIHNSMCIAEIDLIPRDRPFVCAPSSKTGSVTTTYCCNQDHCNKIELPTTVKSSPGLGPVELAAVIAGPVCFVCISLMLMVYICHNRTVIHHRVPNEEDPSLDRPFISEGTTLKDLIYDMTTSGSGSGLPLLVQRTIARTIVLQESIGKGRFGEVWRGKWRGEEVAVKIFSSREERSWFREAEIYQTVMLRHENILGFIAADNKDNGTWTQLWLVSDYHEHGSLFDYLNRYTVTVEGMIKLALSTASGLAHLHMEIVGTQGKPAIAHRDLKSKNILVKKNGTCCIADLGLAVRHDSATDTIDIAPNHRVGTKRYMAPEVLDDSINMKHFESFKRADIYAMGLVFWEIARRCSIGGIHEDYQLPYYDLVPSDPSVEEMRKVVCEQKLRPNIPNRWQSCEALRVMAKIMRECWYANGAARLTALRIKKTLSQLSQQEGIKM
Experiment: TR-FRET enzymatic ALK kinase assay, ALK5
pIC50: −log10 of the molar value.
measured attribute: pIC50

O=[S+]([O-])(c1cccc(-c2cnn3cc(-c4ccc(C5CCNCC5)cc4)cnc23)c1)C1CC1 [Compound 110]; < 5.00
O=[S+]([O-])(c1cccc(-c2cnn3cc(-c4ccc(CCN5CCCCC5)cc4)cnc23)c1)C1CC1 [Compound 112]; < 5.00
C[C@@H]1CNC[C@H](C)N1c1ccc(-c2cnc3c(-c4cccc(C#N)c4)cnn3c2)cc1 [Compound 69]; < 5.00
c1cc(-c2cc[nH]n2)cc(-c2cnn3cc(-c4ccc(CCN5CCCCC5)cc4)cnc23)c1 [Compound 90]; < 5.00
C[C@@H](O)c1cccc(-c2cnn3cc(-c4ccc(CCN5CCCC(O)C5)cc4)cnc23)c1 (stereo partly shown) [Compound 157]; < 5.00
CC(C)S(=O)(=O)c1cccc(-c2cnn3cc(-c4ccc(CCN5CCCCC5)cc4)cnc23)c1 [Compound 113]; < 5.00
C[C@@H]1CNC[C@H](C)N1c1ccc(-c2cnc3c(-c4cccc5c(S(=O)(=O)N(C)C)cccc45)cnn3c2)cc1 [Compound 40]; < 5.00

----------
Molecular target: ALK2 (Mus musculus, UniProt P37172)
Construct: The C2C12 cell line was selected for the measurement of ALK2 activity using BMP6 as the agonist; host or cells: C2C12
Sequence (P37172 21-509): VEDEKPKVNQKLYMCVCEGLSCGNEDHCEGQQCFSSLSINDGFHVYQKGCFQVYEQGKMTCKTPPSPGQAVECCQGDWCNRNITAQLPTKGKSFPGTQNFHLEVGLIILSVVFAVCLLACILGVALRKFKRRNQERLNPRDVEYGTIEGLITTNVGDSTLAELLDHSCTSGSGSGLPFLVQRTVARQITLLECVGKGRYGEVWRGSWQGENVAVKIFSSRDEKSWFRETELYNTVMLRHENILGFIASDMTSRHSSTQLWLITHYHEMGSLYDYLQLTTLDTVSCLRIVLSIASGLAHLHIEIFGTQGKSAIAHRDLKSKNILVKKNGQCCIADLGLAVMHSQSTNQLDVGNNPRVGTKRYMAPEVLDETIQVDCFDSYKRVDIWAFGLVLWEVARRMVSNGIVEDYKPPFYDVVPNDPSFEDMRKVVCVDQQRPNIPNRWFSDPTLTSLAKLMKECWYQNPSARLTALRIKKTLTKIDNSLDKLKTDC
Assay: HTRF pSMAD1 cell-based ALK2 assay (C2C12 cells, BMP6 as agonist)
Conditions: cell-based assay, BMP6; read-out: Cell IC50 BMP6
# IC50 values compiled below
measured attribute: IC50

CC(O)c1cccc(-c2cnn3cc(-c4ccc(CCN5CCCCC5)cc4)cnc23)c1 (stereo not shown) [Compound 97]; 1.16 µM
CNC(=O)c1cccc2c(-c3cnn4cc(-c5ccc(N6CCNCC6)cc5)cnc34)cccc12 [Compound 7]; 0.283 µM
C[C@@H]1CNC[C@H](C)N1c1ccc(-c2cnc3c(-c4ccc(F)c(C#N)c4)cnn3c2)cc1 [Compound 84]; 2.08 µM
N=C(N)c1ccc(-c2cnn3cc(-c4ccc(N5CCNCC5)cc4)cnc23)cc1 [Compound 14]; 4.2 µM

----------
Target: ALK1 (Homo sapiens)
Sequence (P37023 22-503): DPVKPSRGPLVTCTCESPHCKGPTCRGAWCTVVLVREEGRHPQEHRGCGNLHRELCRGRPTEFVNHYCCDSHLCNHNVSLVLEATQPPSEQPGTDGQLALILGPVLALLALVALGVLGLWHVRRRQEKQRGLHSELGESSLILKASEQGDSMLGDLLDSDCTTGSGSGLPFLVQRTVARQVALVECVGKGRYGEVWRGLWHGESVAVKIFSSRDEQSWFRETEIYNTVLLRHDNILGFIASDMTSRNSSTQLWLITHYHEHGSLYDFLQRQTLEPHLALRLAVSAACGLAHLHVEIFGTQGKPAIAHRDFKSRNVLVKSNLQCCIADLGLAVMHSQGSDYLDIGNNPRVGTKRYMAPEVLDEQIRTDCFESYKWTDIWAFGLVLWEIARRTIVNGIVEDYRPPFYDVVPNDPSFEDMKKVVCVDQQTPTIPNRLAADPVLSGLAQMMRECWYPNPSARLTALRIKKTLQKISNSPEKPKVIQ
Test: TR-FRET enzymatic ALK kinase assay, ALK1
pIC50: −log10 of the molar value.
Everything with pIC50 lower than 6 is label 0; everything else, including exactly 6, is label 1.

C[C@@H]1CNC[C@H](C)N1c1ccc(-c2cnc3c(-c4cccc5ccccc45)cnn3c2)cc1 [Compound 31]; label 1
NC(=O)c1ccc(-c2cnn3cc(-c4ccc(N5C[C@@H]6C[C@H]5CN6)cc4)cnc23)c2ccccc12 [Compound 11]; label 1
Cc1ccc(S(C)(=O)=O)cc1-c1cnn2cc(-c3ccc(N4[C@H](C)CNC[C@@H]4C)cc3)cnc12 [Compound 116]; label 0
C[S+](=O)([O-])c1cccc(-c2cnn3cc(-c4ccc(OC5(Cn6ccnc6)COC5)cc4)cnc23)c1 [Compound 105]; label 1
C[S+](=O)([O-])c1cccc(-c2cnn3cc(-c4ccc(OC5(CN6CCC7(CC6)CNC7)CC5)cc4)cnc23)c1 [Compound 184]; label 1
C[C@@H]1CNC[C@H](C)N1c1ccc(-c2cnc3c(-c4cccc5c(C(N)=O)cccc45)cnn3c2)cc1 [Compound 10]; label 1
CS(=O)(=O)c1cccc(-c2cnn3cc(-c4ccc(CCN5CCCCC5)cc4)cnc23)c1 [Compound 86]; label 1
CC(C)S(=O)(=O)c1cccc(-c2cnn3cc(-c4ccc(CCN5CCCCC5)cc4)cnc23)c1 [Compound 113]; label 1
C[C@@H]1CNC[C@H](C)N1c1ccc(-c2cnc3c(-c4cccc5c(-c6nn[nH]n6)cccc45)cnn3c2)cc1 [Compound 28]; label 1
NS(=O)(=O)c1ccc(-c2cnn3cc(-c4ccc(OC(F)(F)CN5CCCCC5)cc4)cnc23)c2ccccc12 [Compound 206]; label 0
C[S+](=O)([O-])c1cccc(-c2cnn3cc(-c4ccc(OC5(CN6CCOCC6)CC5)cc4)cnc23)c1 [Compound 179]; label 1
C[C@@H]1CNC[C@H](C)N1c1ccc(-c2cnc3c(-c4cc(N)cc5ccccc45)cnn3c2)cc1 [Compound 58]; label 1
CC(O)c1cccc(-c2cnn3cc(-c4ccc(CCN5CCCCC5)cc4)cnc23)c1 (centres unmarked) [Compound 97]; label 1
C[S+](=O)([O-])c1cccc(-c2cnn3cc(-c4ccc(OC5(CN6CCCC(O)C6)CC5)cc4)cnc23)c1 (centres unmarked) [Compound 186]; label 1
CS(=O)(=O)c1cc(-c2cnn3cc(-c4ccc(CCN5CCCCC5)cc4)cnc23)cc(C(F)(F)F)c1 [Compound 172]; label 0
CNC(=O)c1cccc2c(-c3cnn4cc(-c5ccc(N6CCNCC6)cc5)cnc34)cccc12 [Compound 7]; label 0
C[C@@H]1CNC[C@H](C)N1c1ccc(-c2cnc3c(-c4cccc(C[S+](C)(=O)[O-])c4)cnn3c2)cc1 [Compound 117]; label 1
C[C@@H]1CNC[C@H](C)N1c1ccc(-c2cnc3c(-c4cccc(C(N)=O)c4)cnn3c2)cc1 [Compound 67]; label 1
NS(=O)(=O)c1ccc(-c2cnn3cc(-c4ccc(N5CCNCC5)nc4)cnc23)c2ccccc12 [Compound 49]; label 0
CC(O)c1cccc(-c2cnn3cc(-c4ccc(OC5(CN6CCCC6)CC5)cc4)cnc23)c1 (centres unmarked) [Compound 167]; label 1
C[C@@H]1CNC[C@H](C)N1c1ccc(-c2cnc3c(-c4ccc(CO)c5ccccc45)cnn3c2)cc1 [Compound 22]; label 1
C[C@@H](O)c1cccc(-c2cnn3cc(-c4ccc(CCN5CCOCC5)cc4)cnc23)c1 [Compound 158]; label 0
CC[S+](=O)([O-])c1cccc(-c2cnn3cc(-c4ccc(N5[C@H](C)CNC[C@@H]5C)cc4)cnc23)c1 [Compound 104]; label 1
